System: ROCK1;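 also: KINOMEscan kinase panel screen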
Conditions: concentration: 1 μM, replicates: in singlicate; n = 1
If the reported %Inh equals or exceeds 90%, assign class 1. If not, assign class 0.

These recorded examples may help you get a feel for the data.
{"smiles notation": "CC(C)(C)c1ccc(C(=O)Nc2cn3cc(-n4ccnc4)ccc3n2)cc1", "assigned category": "class 0"}
{"smiles notation": "CN(C)CCOc1ccc(-c2cc(-c3ccc(Cl)c(O)c3)c(-c3ccncc3)[nH]2)cc1.Cl.Cl", "assigned category": "class 1"}
{"smiles notation": "COc1cccc2c(-c3ccncc3)c(-c3ccc(F)cc3)nn12", "assigned category": "class 0"}
{"smiles notation": "COc1cccc(CC(=O)N2CCc3cc(-c4cn(C)c5ncnc(N)c45)ccc32)c1", "assigned category": "class 0"}

Does %Inh meet or surpass 90% for O=C(O)C(F)(F)F.O=c1[nH]ccc2nc(N[C@@H]3CCNC3)nc(Nc3cc(Cl)cc(Cl)c3)c12 ?
class 1

What do you get for CCNc1nccc(-c2c(-c3ccc(F)cc3)ncn2C2CCN(C)CC2)n1 ?
class 0

What do you get for Cc1ccccc1CC(=O)N1CCc2cc(-c3cn(C)c4ncnc(N)c34)ccc21 ?
class 0
